Molecular target: Odorant receptor 29 (AgamOr29) (Anopheles gambiae, UniProt A0A1S4H074)
Construct: coding region, expressed with AgamOrco in Xenopus laevis oocytes; with AgamOrco
Sequence (A0A1S4H074 1-384): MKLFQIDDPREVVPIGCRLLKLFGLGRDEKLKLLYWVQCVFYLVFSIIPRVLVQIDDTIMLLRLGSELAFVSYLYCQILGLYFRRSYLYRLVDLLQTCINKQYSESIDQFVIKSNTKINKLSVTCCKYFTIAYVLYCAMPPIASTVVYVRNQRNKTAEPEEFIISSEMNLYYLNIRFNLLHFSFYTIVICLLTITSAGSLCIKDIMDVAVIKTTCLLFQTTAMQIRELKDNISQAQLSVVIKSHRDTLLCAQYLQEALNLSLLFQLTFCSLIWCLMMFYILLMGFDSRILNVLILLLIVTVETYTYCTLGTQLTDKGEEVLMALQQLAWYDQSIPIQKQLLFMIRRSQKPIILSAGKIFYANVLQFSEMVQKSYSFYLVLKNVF
Sequence (Q7QCC7 whole entry partner): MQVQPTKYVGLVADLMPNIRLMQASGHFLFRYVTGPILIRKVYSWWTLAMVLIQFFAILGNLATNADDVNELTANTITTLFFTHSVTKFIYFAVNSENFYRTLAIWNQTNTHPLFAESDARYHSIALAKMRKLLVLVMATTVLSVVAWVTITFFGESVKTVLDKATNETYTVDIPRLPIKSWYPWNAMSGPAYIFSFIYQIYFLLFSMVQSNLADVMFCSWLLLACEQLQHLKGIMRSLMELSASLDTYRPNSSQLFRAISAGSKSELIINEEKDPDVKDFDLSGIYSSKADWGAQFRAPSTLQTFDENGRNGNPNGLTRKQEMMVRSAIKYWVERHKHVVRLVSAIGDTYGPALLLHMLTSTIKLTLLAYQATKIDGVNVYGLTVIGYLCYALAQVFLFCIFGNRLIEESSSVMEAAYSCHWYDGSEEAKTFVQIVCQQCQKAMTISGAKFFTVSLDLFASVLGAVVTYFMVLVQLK
Experiment: two-electrode voltage clamp of Xenopus oocytes, concentration-response
pEC50: −log10 of the molar value.
assay endpoint: pEC50

- compound: "C=C[C@](C)(O)CCC=C(C)C [(R)-(–)-linalool]"
  assay endpoint: "pEC50"
  measured value: "~5.10"

Query string: For the compound C=CC(C)(O)CCC=C(C)C (racemic) [(+/–) linalool] , what pEC50 is on record?
Result string: ~5.24

Values were extracted from paper PMC6872167.
